The measured values listed here are drawn from ChEMBL document CHEMBL1141017.

assay: Cmax in Sprague-Dawley rat at 7.5 mg/kg, po; assay type: ADME, organism-based; design: dose 7.5 mg/kg, route oral; conditions: in vivo
PROPERTY_NAME: Cmax (nM)

{"ITEM_SMILES": "C=C(C)[C@@H]1CC[C@]2(C(=O)NCCc3ccccc3C(=O)NCCC(=O)O)CC[C@]3(C)[C@H](CC[C@@H]4[C@@]5(C)CC[C@H](OC(=O)CC(C)(C)C(=O)O)C(C)(C)[C@@H]5CC[C@]43C)[C@@H]12", "READOUT_NUMBER": 860}

====

assay: Metabolic stability in Sprague-Dawley rat liver microsomes assessed as compound remaining after 40 mins; format: ADME, Microsome; conditions: read-out: Stability
PROPERTY_NAME: remaining at 40 min (%)

{"ITEM_SMILES": "C=C(C)[C@@H]1CC[C@]2(C(=O)NCc3cccc(OC(F)(F)F)c3)CC[C@]3(C)[C@H](CC[C@@H]4[C@@]5(C)CC[C@H](OC(=O)CC(C)(C)C(=O)O)C(C)(C)[C@@H]5CC[C@]43C)[C@@H]12", "PROPERTY_NAME": "remaining at 40 min", "UNIT_TAG": "%", "READOUT_NUMBER": 10}
{"ITEM_SMILES": "C=C(C)[C@@H]1CC[C@]2(C(=O)NCc3cccc(C(=O)NCCNC(C)=O)c3)CC[C@]3(C)[C@H](CC[C@@H]4[C@@]5(C)CC[C@H](OC(=O)CC(C)(C)C(=O)O)C(C)(C)[C@@H]5CC[C@]43C)[C@@H]12", "PROPERTY_NAME": "remaining at 40 min", "UNIT_TAG": "%", "READOUT_NUMBER": 10}

====

selectivity ratio overview
assay: Therapeutic index, ratio of TC50 for human MT4 cells to IC50 for HIV1 3B; format: cell-based

{"ITEM_SMILES": "C=C(C)[C@@H]1CC[C@]2(C(=O)NCc3ccc(OC(F)(F)F)cc3)CC[C@]3(C)[C@H](CC[C@@H]4[C@@]5(C)CC[C@H](OC(=O)CC(C)(C)C(=O)O)C(C)(C)[C@@H]5CC[C@]43C)[C@@H]12", "selectivity ratio": "> 400"}
{"ITEM_SMILES": "C=C(C)[C@@H]1CC[C@]2(C(=O)NCc3ccccc3C(=O)NCCNC(C)=O)CC[C@]3(C)[C@H](CC[C@@H]4[C@@]5(C)CC[C@H](OC(=O)CC(C)(C)C(=O)O)C(C)(C)[C@@H]5CC[C@]43C)[C@@H]12", "selectivity ratio": "> 400"}
{"ITEM_SMILES": "C=C(C)[C@@H]1CC[C@]2(C(=O)NCc3ccc(-c4ccccc4)cc3)CC[C@]3(C)[C@H](CC[C@@H]4[C@@]5(C)CC[C@H](OC(=O)CC(C)(C)C(=O)O)C(C)(C)[C@@H]5CC[C@]43C)[C@@H]12", "selectivity ratio": "> 400"}
{"ITEM_SMILES": "C=C(C)[C@@H]1CC[C@]2(C(=O)NCc3ccc(C(=O)O)cc3)CC[C@]3(C)[C@H](CC[C@@H]4[C@@]5(C)CC[C@H](OC(=O)CC(C)(C)C(=O)O)C(C)(C)[C@@H]5CC[C@]43C)[C@@H]12", "selectivity ratio": "> 400"}
{"ITEM_SMILES": "C=C(C)[C@@H]1CC[C@]2(C(=O)NCc3ccccc3C)CC[C@]3(C)[C@H](CC[C@@H]4[C@@]5(C)CC[C@H](OC(=O)CC(C)(C)C(=O)O)C(C)(C)[C@@H]5CC[C@]43C)[C@@H]12", "selectivity ratio": "> 400"}
{"ITEM_SMILES": "C=C(C)[C@@H]1CC[C@]2(C(=O)NCc3cccc(OC)c3)CC[C@]3(C)[C@H](CC[C@@H]4[C@@]5(C)CC[C@H](OC(=O)CC(C)(C)C(=O)O)C(C)(C)[C@@H]5CC[C@]43C)[C@@H]12", "selectivity ratio": "> 400"}
{"ITEM_SMILES": "C=C(C)[C@@H]1CC[C@]2(C(=O)NCc3cccc(C(=O)O)c3)CC[C@]3(C)[C@H](CC[C@@H]4[C@@]5(C)CC[C@H](OC(=O)CC(C)(C)C(=O)O)C(C)(C)[C@@H]5CC[C@]43C)[C@@H]12", "selectivity ratio": "> 400"}
{"ITEM_SMILES": "C=C(C)[C@@H]1CC[C@]2(C(=O)NCc3ccc(Cl)cc3)CC[C@]3(C)[C@H](CC[C@@H]4[C@@]5(C)CC[C@H](OC(=O)CC(C)(C)C(=O)O)C(C)(C)[C@@H]5CC[C@]43C)[C@@H]12", "selectivity ratio": "> 400"}
{"ITEM_SMILES": "C=C(C)[C@@H]1CC[C@]2(C(=O)NCc3ccc(N(C)C)cc3)CC[C@]3(C)[C@H](CC[C@@H]4[C@@]5(C)CC[C@H](OC(=O)CC(C)(C)C(=O)O)C(C)(C)[C@@H]5CC[C@]43C)[C@@H]12", "selectivity ratio": "> 400"}

====

assay: Cytotoxicity against human MT4 cells after 4 days by cell viability assay; format: cell-based; details: read-out: TC50

{"ITEM_SMILES": "C=C(C)[C@@H]1CC[C@]2(C(=O)N3Cc4ccccc4C3)CC[C@]3(C)[C@H](CC[C@@H]4[C@@]5(C)CC[C@H](OC(=O)CC(C)(C)C(=O)O)C(C)(C)[C@@H]5CC[C@]43C)[C@@H]12", "UNIT_TAG": "µM", "OP": ">", "CC50 at 96 h": 10}
{"ITEM_SMILES": "C=C(C)[C@@H]1CC[C@]2(C(=O)NCCc3ccc(C(=O)O)cc3)CC[C@]3(C)[C@H](CC[C@@H]4[C@@]5(C)CC[C@H](OC(=O)CC(C)(C)C(=O)O)C(C)(C)[C@@H]5CC[C@]43C)[C@@H]12", "UNIT_TAG": "µM", "OP": "=", "CC50 at 96 h": 1}
{"ITEM_SMILES": "C=C(C)[C@@H]1CC[C@]2(C(=O)NCc3cccc(C(=O)O)c3)CC[C@]3(C)[C@H](CC[C@@H]4[C@@]5(C)CC[C@H](OC(=O)CC(C)(C)C(=O)O)C(C)(C)[C@@H]5CC[C@]43C)[C@@H]12", "UNIT_TAG": "µM", "OP": "=", "CC50 at 96 h": 7.6}
{"ITEM_SMILES": "C=C(C)[C@@H]1CC[C@]2(C(=O)NCCc3ccc(OC)cc3)CC[C@]3(C)[C@H](CC[C@@H]4[C@@]5(C)CC[C@H](OC(=O)CC(C)(C)C(=O)O)C(C)(C)[C@@H]5CC[C@]43C)[C@@H]12", "UNIT_TAG": "µM", "OP": ">", "CC50 at 96 h": 10}

====

assay: AUC (0 to infinity) in Sprague-Dawley rat at 7.5 mg/kg, po; type: ADME, organism-based; parameters: time infinity, dose 7.5 mg/kg, route oral; conditions: plasma

{"ITEM_SMILES": "C=C(C)[C@@H]1CC[C@]2(C(=O)NCCc3ccccc3C(=O)NCCC(=O)O)CC[C@]3(C)[C@H](CC[C@@H]4[C@@]5(C)CC[C@H](OC(=O)CC(C)(C)C(=O)O)C(C)(C)[C@@H]5CC[C@]43C)[C@@H]12", "AUC(0-inf)": "1650 ng·h/mL"}

====

test: Cytotoxicity against human PBMC by cell viability assay; assay type: cell-based; conditions: read-out: TC50 (the source's name)

{"ITEM_SMILES": "C=C(C)[C@@H]1CC[C@]2(C(=O)NCc3nc4ccccc4s3)CC[C@]3(C)[C@H](CC[C@@H]4[C@@]5(C)CC[C@H](OC(=O)CC(C)(C)C(=O)O)C(C)(C)[C@@H]5CC[C@]43C)[C@@H]12", "CC50": "> 10 µM"}
{"ITEM_SMILES": "C=C(C)[C@@H]1CC[C@]2(C(=O)NCc3nc4ccccc4[nH]3)CC[C@]3(C)[C@H](CC[C@@H]4[C@@]5(C)CC[C@H](OC(=O)CC(C)(C)C(=O)O)C(C)(C)[C@@H]5CC[C@]43C)[C@@H]12", "CC50": "> 10 µM"}
{"ITEM_SMILES": "C=C(C)[C@@H]1CC[C@]2(C(=O)NCc3ccccc3OC)CC[C@]3(C)[C@H](CC[C@@H]4[C@@]5(C)CC[C@H](OC(=O)CC(C)(C)C(=O)O)C(C)(C)[C@@H]5CC[C@]43C)[C@@H]12", "CC50": "> 10 µM"}
{"ITEM_SMILES": "C=C(C)[C@@H]1CC[C@]2(C(=O)NCCc3ccc(OC)cc3)CC[C@]3(C)[C@H](CC[C@@H]4[C@@]5(C)CC[C@H](OC(=O)CC(C)(C)C(=O)O)C(C)(C)[C@@H]5CC[C@]43C)[C@@H]12", "CC50": "1 µM"}
